Assayed System: Glutamate receptor ionotropic, NMDA 2B (Homo sapiens, UniProt Q05586+Q13224)
Sequence (Q13224 whole entry, one chain of several): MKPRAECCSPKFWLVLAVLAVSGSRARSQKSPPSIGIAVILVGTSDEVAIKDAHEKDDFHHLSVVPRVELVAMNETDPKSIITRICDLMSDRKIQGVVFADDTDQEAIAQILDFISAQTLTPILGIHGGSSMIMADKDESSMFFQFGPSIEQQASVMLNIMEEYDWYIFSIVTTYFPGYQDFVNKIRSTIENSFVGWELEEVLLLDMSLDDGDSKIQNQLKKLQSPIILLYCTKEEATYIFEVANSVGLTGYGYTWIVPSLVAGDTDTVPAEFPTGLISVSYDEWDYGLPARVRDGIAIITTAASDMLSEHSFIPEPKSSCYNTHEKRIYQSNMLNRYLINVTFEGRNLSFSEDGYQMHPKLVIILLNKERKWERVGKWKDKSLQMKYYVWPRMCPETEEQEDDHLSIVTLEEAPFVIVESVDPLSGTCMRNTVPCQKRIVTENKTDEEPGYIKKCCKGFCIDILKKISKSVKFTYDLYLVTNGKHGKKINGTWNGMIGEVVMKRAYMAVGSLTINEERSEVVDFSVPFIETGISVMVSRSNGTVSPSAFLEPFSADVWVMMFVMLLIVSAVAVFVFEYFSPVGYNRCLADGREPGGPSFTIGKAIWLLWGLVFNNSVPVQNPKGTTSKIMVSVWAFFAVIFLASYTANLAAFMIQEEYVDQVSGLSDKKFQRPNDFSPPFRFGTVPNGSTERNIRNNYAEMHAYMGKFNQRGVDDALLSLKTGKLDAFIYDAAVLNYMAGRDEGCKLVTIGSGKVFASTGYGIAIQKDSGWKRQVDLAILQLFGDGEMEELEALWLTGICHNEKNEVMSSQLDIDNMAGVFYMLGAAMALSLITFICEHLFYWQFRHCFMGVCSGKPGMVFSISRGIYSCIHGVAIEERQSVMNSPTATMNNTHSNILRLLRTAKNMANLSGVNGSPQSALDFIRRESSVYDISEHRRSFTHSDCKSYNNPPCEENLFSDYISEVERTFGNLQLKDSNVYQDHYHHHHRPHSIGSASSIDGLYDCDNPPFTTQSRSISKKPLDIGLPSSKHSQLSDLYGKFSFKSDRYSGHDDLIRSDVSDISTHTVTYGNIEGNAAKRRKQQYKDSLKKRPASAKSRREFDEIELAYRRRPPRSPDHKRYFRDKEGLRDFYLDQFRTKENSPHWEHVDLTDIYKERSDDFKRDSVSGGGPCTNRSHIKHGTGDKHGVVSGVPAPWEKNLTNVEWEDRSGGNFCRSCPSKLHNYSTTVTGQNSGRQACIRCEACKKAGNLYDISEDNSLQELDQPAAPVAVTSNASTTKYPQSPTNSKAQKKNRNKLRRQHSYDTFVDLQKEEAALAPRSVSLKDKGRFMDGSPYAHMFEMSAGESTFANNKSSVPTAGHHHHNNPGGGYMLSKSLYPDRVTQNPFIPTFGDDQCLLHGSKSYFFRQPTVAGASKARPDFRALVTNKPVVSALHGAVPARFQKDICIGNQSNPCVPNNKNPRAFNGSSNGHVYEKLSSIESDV
Run Description: Displacement of NMDA receptor-specific [3H]ifenprodil binding to recombinant human NMDA receptor, NR2B subtype expressed in L cells
Ki under 0.02 µM gets true (1), anything at or over 0.02 µM gets false (0).

>>> assigned_label("COc1cccc(C/N=C(\\N)c2ccc(OC(F)(F)F)cc2)c1")
"false (0)"
>>> assigned_label("NC(=NCc1ccccc1)c1ccccc1")
"false (0)"
>>> assigned_label("Cc1cc(C)cc(C/N=C(\\N)c2ccc(C(F)(F)F)cc2)c1")
"true (1)"
>>> assigned_label("N=C(NCc1ccccc1)c1ccc(-c2ccccc2)cc1")
"false (0)"
>>> assigned_label("Cc1cc(C)cc(C/N=C(\\N)c2ccc(OC(F)(F)F)cc2)c1")
"true (1)"
>>> assigned_label("N=C(NCc1cccc(Cl)c1)c1cccc(F)c1")
"false (0)"
>>> assigned_label("NC(=NCc1cccc(Cl)c1)c1ccc(Cl)c(Cl)c1")
"true (1)"
>>> assigned_label("N=C(NCc1cc(Cl)cc(Cl)c1)c1ccc(OC(F)(F)F)cc1")
"true (1)"
>>> assigned_label("N=C(NCc1ccccc1OC(F)(F)F)c1ccc(Cl)c(Cl)c1")
"true (1)"
>>> assigned_label("COc1ccccc1C/N=C(\\N)c1ccc(OC(F)(F)F)cc1")
"true (1)"
